- subject_of_test: Transient receptor potential cation channel subfamily A member 1 (Homo sapiens, UniProt O75762)
- Sequence (O75762 whole entry): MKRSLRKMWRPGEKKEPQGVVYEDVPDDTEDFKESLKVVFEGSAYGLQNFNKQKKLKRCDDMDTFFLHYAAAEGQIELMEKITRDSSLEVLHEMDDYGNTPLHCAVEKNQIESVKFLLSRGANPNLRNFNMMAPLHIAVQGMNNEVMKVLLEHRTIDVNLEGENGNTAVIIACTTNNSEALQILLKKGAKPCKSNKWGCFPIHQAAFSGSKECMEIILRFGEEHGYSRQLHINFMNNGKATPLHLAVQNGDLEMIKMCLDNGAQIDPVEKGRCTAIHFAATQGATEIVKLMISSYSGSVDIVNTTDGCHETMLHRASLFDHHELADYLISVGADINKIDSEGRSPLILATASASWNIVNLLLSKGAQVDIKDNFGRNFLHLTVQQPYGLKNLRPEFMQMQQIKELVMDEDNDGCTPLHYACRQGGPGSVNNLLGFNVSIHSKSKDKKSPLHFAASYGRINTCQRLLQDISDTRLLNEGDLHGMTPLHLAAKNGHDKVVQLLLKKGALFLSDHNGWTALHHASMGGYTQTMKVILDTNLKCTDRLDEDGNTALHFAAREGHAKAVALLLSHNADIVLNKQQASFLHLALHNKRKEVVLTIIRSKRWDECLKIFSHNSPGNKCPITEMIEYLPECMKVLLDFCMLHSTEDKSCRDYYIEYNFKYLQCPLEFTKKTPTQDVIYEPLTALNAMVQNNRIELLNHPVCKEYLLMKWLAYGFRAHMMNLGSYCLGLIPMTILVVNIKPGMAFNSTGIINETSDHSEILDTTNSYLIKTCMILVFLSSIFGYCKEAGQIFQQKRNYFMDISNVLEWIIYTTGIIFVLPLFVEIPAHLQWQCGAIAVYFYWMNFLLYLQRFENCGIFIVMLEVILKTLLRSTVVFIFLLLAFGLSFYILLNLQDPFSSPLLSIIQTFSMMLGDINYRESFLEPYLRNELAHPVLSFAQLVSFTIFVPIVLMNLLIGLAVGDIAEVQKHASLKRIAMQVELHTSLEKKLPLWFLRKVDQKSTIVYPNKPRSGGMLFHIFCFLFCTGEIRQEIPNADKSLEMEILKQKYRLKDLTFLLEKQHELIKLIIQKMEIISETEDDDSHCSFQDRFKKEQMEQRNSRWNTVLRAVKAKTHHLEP
- assay_method_text: Agonist activity at human TRPA1 channel expressed in HEK293 cells assessed as calcium influx measured at every 1 second for 60 seconds by fluorescence analysis
- Assay type: functional, cell-based
- condition_label: read-out: EC50
readout_kind: pEC50
Answers are plain numbers, as −log10 of the molar value.

Please review the following examples before continuing.
CC(C)CNc1nc(N2CCN(Cc3ccccc3)CC2)ncc1C(=O)NCc1ccccc1: 7.10
O=C(NCc1ccccc1)c1cnc(N2CCN(CC3CCCOC3)CC2)nc1NC1CC1 (stereo not given): 6.96
O=C(NCc1ccccc1)c1cnc(N2CCN(C(=O)c3c(F)cccc3F)CC2)nc1NC1CC1: 7.57
CC(C)CNc1nc(N2CCN(Cc3ccccc3)CC2)ncc1C(=O)NCc1cccnc1: 7.31

# ---- query molecule ----
### Prompt Given CC(C)CNc1nc(N2CCN(CC3CCCOC3)CC2)ncc1C(=O)NCc1ccccc1 (stereo not given) , state its recorded pEC50.
### Response 7.64
